Source listed as patent US10660967B2.

- System: carrageenan induced paw edema
- measurement-description: Anti-inflammatory activity: acute carrageenan induced paw edema in rats
- Format: in vivo, Wister rats
- condition-notes: 4 h; 10 mg kg^−1 indomethacin mol equivalent, intraperitoneally; mean ± SE

- compound: "COc1cc(/C=C/C(=O)CC(=O)/C=C/c2ccc(OC(=O)[C@@H](N)Cc3ccccc3)c(OC)c2)ccc1OC(=O)[C@@H](N)Cc1ccccc1.Cl.Cl"
  Mean edema thickness: "0.22 ± 0.03 mm"
- compound: "COc1cc(/C=C/C(=O)CC(=O)/C=C/c2ccc(OC(=O)[C@H](Cc3ccccc3)NC(=O)OC(C)(C)C)c(OC)c2)ccc1OC(=O)[C@H](Cc1ccccc1)NC(=O)OC(C)(C)C"
  Mean edema thickness: "0.58 ± 0.03 mm"
- compound: "COc1cc(/C=C/C(=O)CC(=O)/C=C/c2ccc(OC(=O)CCN)c(OC)c2)ccc1OC(=O)CCN.Cl.Cl"
  Mean edema thickness: "0.16 ± 0.04 mm"
- compound: "COc1cc(/C=C/C(=O)CC(=O)/C=C/c2ccc(OC(=O)[C@H](CC(C)C)NC(=O)OCC3c4ccccc4-c4ccccc43)c(OC)c2)ccc1OC(=O)[C@H](CC(C)C)NC(=O)OCC1c2ccccc2-c2ccccc21"
  Mean edema thickness: "0.70 ± 0.19 mm"
- compound: "COc1cc(/C=C/C(=O)CC(=O)/C=C/c2ccc(OC(=O)[C@H](Cc3c[nH]c4ccccc34)NC(=O)OCc3ccccc3)c(OC)c2)ccc1OC(=O)[C@H](Cc1c[nH]c2ccccc12)NC(=O)OCc1ccccc1"
  Mean edema thickness: "1.23 ± 0.19 mm"
- compound: "COc1cc(/C=C/C(=O)CC(=O)/C=C/c2ccc(OC(=O)[C@@H](N)C(C)C)c(OC)c2)ccc1OC(=O)[C@@H](N)C(C)C.Cl.Cl"
  Mean edema thickness: "0.75 ± 0.09 mm"
- compound: "COc1cc(/C=C/C(=O)CC(=O)/C=C/c2ccc(OC(=O)[C@@H](C)NC(=O)OC(C)(C)C)c(OC)c2)ccc1OC(=O)[C@@H](C)NC(=O)OC(C)(C)C"
  Mean edema thickness: "0.81 ± 0.08 mm"
- compound: "COc1cc(/C=C/C(=O)CC(=O)/C=C/c2ccc(OC(=O)C(C)NC(=O)OC(C)(C)C)c(OC)c2)ccc1OC(=O)C(C)NC(=O)OC(C)(C)C (stereo not shown)"
  Mean edema thickness: "0.84 ± 0.12 mm"
- compound: "COc1ccc2c(c1)c(CC(=O)O)c(C)n2C(=O)c1ccc(Cl)cc1"
  Mean edema thickness: "0.18 ± 0.03 mm"
- compound: "COc1cc(/C=C/C(=O)CC(=O)/C=C/c2ccc(O)c(OC)c2)ccc1O"
  Mean edema thickness: "0.21 ± 0.08 mm"
- compound: "COc1cc(/C=C/C(=O)CC(=O)/C=C/c2ccc(OC(=O)[C@H](C)NC(=O)OCc3ccccc3)c(OC)c2)ccc1OC(=O)[C@H](C)NC(=O)OCc1ccccc1"
  Mean edema thickness: "1.23 ± 0.25 mm"
- compound: "COc1cc(/C=C/C(=O)CC(=O)/C=C/c2ccc(OC(=O)CNC(=O)OCc3ccccc3)c(OC)c2)ccc1OC(=O)CNC(=O)OCc1ccccc1"
  Mean edema thickness: "0.92 ± 0.20 mm"
- compound: "COc1cc(/C=C/C(=O)CC(=O)/C=C/c2ccc(OC(=O)[C@H](C)NC(=O)OCC3c4ccccc4-c4ccccc43)c(OC)c2)ccc1OC(=O)[C@H](C)NC(=O)OCC1c2ccccc2-c2ccccc21"
  Mean edema thickness: "0.62 ± 0.09 mm"
- compound: "CC(C)Cc1ccc(C(C)C(=O)O)cc1 (stereo not shown)"
  Mean edema thickness: "0.29 ± 0.01 mm"
- compound: "COc1cc(/C=C/C(=O)CC(=O)/C=C/c2ccc(OC(=O)CCNC(=O)OC(C)(C)C)c(OC)c2)ccc1OC(=O)CCNC(=O)OC(C)(C)C"
  Mean edema thickness: "0.55 ± 0.07 mm"
- compound: "COc1cc(/C=C/C(=O)CC(=O)/C=C/c2ccc(OC(=O)[C@@H](C)N)c(OC)c2)ccc1OC(=O)[C@@H](C)N.Cl.Cl"
  Mean edema thickness: "0.06 ± 0.01 mm"
- compound: "COc1cc(/C=C/C(=O)CC(=O)/C=C/c2ccc(OC(=O)[C@H](Cc3ccccc3)NC(=O)OCC3c4ccccc4-c4ccccc43)c(OC)c2)ccc1OC(=O)[C@H](Cc1ccccc1)NC(=O)OCC1c2ccccc2-c2ccccc21"
  Mean edema thickness: "0.56 ± 0.04 mm"
- compound: "COc1cc(/C=C/C(=O)CC(=O)/C=C/c2ccc(OC(=O)C(C)NC(=O)OCc3ccccc3)c(OC)c2)ccc1OC(=O)C(C)NC(=O)OCc1ccccc1 (stereo not shown)"
  Mean edema thickness: "0.00 ± 0.00 mm"
- compound: "COc1cc(/C=C/C(=O)CC(=O)/C=C/c2ccc(OC(=O)[C@H](CC(C)C)NC(=O)OCc3ccccc3)c(OC)c2)ccc1OC(=O)[C@H](CC(C)C)NC(=O)OCc1ccccc1"
  Mean edema thickness: "1.25 ± 0.09 mm"
- compound: "COc1cc(/C=C/C(=O)CC(=O)/C=C/c2ccc(OC(=O)[C@H](C)NC(=O)OC(C)(C)C)c(OC)c2)ccc1OC(=O)[C@H](C)NC(=O)OC(C)(C)C"
  Mean edema thickness: "1.04 ± 0.18 mm"
- compound: "COc1cc(/C=C/C(=O)CC(=O)/C=C/c2ccc(OC(=O)[C@H](CCSC)NC(=O)OCC3c4ccccc4-c4ccccc43)c(OC)c2)ccc1OC(=O)[C@H](CCSC)NC(=O)OCC1c2ccccc2-c2ccccc21"
  Mean edema thickness: "0.03 ± 0.01 mm"
- compound: "COc1cc(/C=C/C(=O)CC(=O)/C=C/c2ccc(OC(=O)[C@H](C)N)c(OC)c2)ccc1OC(=O)[C@H](C)N.Cl.Cl"
  Mean edema thickness: "0.47 ± 0.04 mm"
